List of TGI values.
system: OVCAR-5 ovarian; assay: NCI tumour cell line growth inhibition, 48 h

Below, 4 compounds whose answers are already recorded.
O=S(=O)(O)c1cc(N=Nc2cc(S(=O)(=O)O)c3cccnc3c2O)ccc1/C=C/c1ccc(N=Nc2cc(S(=O)(=O)O)c3cccnc3c2O)cc1S(=O)(=O)O :: > 100 µM
C1=CC(=[N+]2N=C(c3ccccc3)CC2c2ccccc2)C=CC1=C1SC(c2ccccc2)(c2ccccc2)c2ccccc21 (stereo unspecified) :: > 100 µM
CCCC(=O)OCC1OC(n2cc(F)c(=O)[nH]c2=O)C(F)C1OC(=O)CCC (stereo unspecified) :: > 100 µM
CC1(C)CC(=O)c2c(nc(SSc3nc4c(c(-c5ccc(Br)cc5)c3C#N)C(=O)CC(C)(C)C4)c(C#N)c2-c2ccc(Br)cc2)C1 :: > 10 µM

Lab request: please report TGI under test system OVCAR-5 ovarian for `C#Cc1cccc(Oc2ccc(NC(=O)CCl)cc2)c1` > 82.5 µM

What reported TGI corresponds to `CC(=O)Oc1ccc(CO)cc1OC(C)=O` on OVCAR-5 ovarian? > 100 µM

I'm curious: which TGI was measured for `Cc1cc(C)n(C(=O)c2nn(-c3ccc(Cl)cc3)cc2O)n1` tested on OVCAR-5 ovarian? > 100 µM

State its TGI on OVCAR-5 ovarian: `CN(NC(=O)/C(=C\c1ccco1)NC(=O)c1ccccc1)c1cn[nH]c(=O)c1Cl` > 100 µM

State its TGI on OVCAR-5 ovarian: COC(=O)C1(C2CC/C(C)=C/CC/C(C)=C/CC[C@@]3(C)O[C@@H]3C2)CC1 (stereo partly specified) > 100 µM

Request body: readout TGI, system OVCAR-5 ovarian, query `COC(=O)CCc1cccnc1/C=N/O` . Return the value. > 100 µM

Kindly state the measured TGI obtained for `O=c1[nH]c(Nc2ccc(Cl)cc2)nc2nc[nH]c12` with OVCAR-5 ovarian. > 100 µM
